meta.source: ChEMBL document CHEMBL4219043

- Assay text: Half life in dog at 1 mg/kg, iv by LC-MS/MS analysis
- Format: ADME, organism-based, Canis lupus familiaris
- Condition notes: in vivo
Assay readout: half-life (h)
Record the value in h, omitting the unit from your answer.

[
  {
    "Item smiles": "Cc1cc(C(=O)N[C@H]2CCCCC/C=C\\[C@@H]3C[C@@]3(C(=O)NS(=O)(=O)C3(C)CC3)NC(=O)[C@@H]3C[C@@H](Oc4nc5cc(F)ccc5nc4C(F)(F)F)CN3C2=O)no1",
    "Readout unit": "h",
    "half-life": 2.9
  }
]

## Input What does the record list as half-life for "Cc1cc(C(=O)N[C@H]2CCCCC/C=C\[C@@H]3C[C@@]3(C(=O)NS(=O)(=O)C3CC3)NC(=O)[C@@H]3C[C@@H](Oc4nc5ccccc5nc4C(F)(F)F)CN3C2=O)no1" ?
## Output 1

## Input What about this molecule? "Cc1cc(C(=O)N[C@H]2CCCCC/C=C\[C@@H]3C[C@@]3(C(=O)NS(=O)(=O)C3CC3)NC(=O)[C@@H]3C[C@@H](Oc4nc5ccccc5nc4C)CN3C2=O)no1"
## Output 1.4

## Input What about this molecule? "Cc1cc(C(=O)N[C@H]2CCCCC/C=C\[C@@H]3C[C@@]3(C(=O)NS(=O)(=O)C3(C)CC3)NC(=O)[C@@H]3C[C@@H](Oc4nc5ccccc5c5ccc(F)cc45)CN3C2=O)no1"
## Output 2.3

## Input What about this molecule? "Cn1ccc(C(=O)N[C@H]2CCCCC/C=C\[C@@H]3C[C@@]3(C(=O)NS(=O)(=O)C3(C)CC3)NC(=O)[C@@H]3C[C@@H](Oc4nc5cc(OC(F)(F)F)ccc5c5ccc(F)cc45)CN3C2=O)n1"
## Output 3.2

## Input What about this molecule? "Cc1cc(C(=O)N[C@H]2CCCCC/C=C\[C@@H]3C[C@@]3(C(=O)NS(=O)(=O)C3CC3)NC(=O)[C@@H]3C[C@@H](Oc4nc5cc(F)ccc5nc4C)CN3C2=O)no1"
## Output 2

## Input What about this molecule? "CC(=O)N(C)[C@@H](CC(C)(C)C)C(=O)N[C@H]1CCCCC/C=C\[C@@H]2C[C@@]2(C(=O)NS(=O)(=O)C2(C)CC2)NC(=O)[C@@H]2C[C@@H](Oc3nc4cc(F)ccc4c4ccccc34)CN2C1=O"
## Output 2.2

## Input What about this molecule? "Cc1cc(C(=O)N[C@H]2CCCCC/C=C\[C@@H]3C[C@@]3(C(=O)NS(=O)(=O)C3CC3)NC(=O)[C@@H]3C[C@@H](Oc4nc5cc(F)ccc5nc4C(F)(F)F)CN3C2=O)no1"
## Output 3.5

====

- Tested on: RS4-11
- Assay text: Antiproliferative activity against human RS4:11 cells in presence of 10% human serum
- Format: functional, cell-based
Assay readout: EC50 (nM)
Record the value in nM, omitting the unit from your answer.

Would you please look over these solved cases?
[
  {
    "Item smiles": "CN(C)CC[C@H](CSc1ccccc1)Nc1ccc(S(=O)(=O)NC(=O)c2ccc(N3CCN(Cc4ccccc4-c4ccc(Cl)cc4)CC3)cc2)cc1[N+](=O)[O-]",
    "System": "RS4-11",
    "Readout unit": "nM",
    "EC50": 24
  },
  {
    "Item smiles": "CO[C@H]1CC[C@H](CNc2ccc(S(=O)(=O)NC(=O)c3ccc(N4CCN(CC5=C(c6ccc(Cl)cc6)CC(C)(C)CC5)CC4)cc3Oc3cnc4[nH]ccc4c3)cc2[N+](=O)[O-])CC1",
    "System": "RS4-11",
    "Readout unit": "nM",
    "EC50": 6
  },
  {
    "Item smiles": "CC1(C)CCC(CN2CCN(c3ccc(C(=O)NS(=O)(=O)c4ccc(NCC5CCOCC5)c([N+](=O)[O-])c4)c(Oc4cnc5[nH]ccc5c4)c3)CC2)=C(c2ccc(Cl)cc2)C1",
    "System": "RS4-11",
    "Readout unit": "nM",
    "EC50": 8
  }
]

## Input What does the record list as EC50 for "CC1(C)CCC(c2ccc(Cl)cc2)=C(CN2CCN(c3ccc(C(=O)NS(=O)(=O)c4ccc(N[C@H](CCN5CCOCC5)CSc5ccccc5)c(S(=O)(=O)C(F)(F)F)c4)cc3)CC2)C1" ?
## Output 112
